Reference source: patent US20250195475A1

Please respond with reported pIC50 for every item in the list.
- system.name: CDK2/CyclinE1 (Homo sapiens (Human), UniProt P24941)
- assay.info: CDK2 kinase assay (TR-FRET)
- condition.label: CDK2/CyclinE1 0.5 nM, ATP 50 μM
Quick note: pIC50 values are minus log10 of concentrations in mol/L.

Give the measured pIC50 of Cn1nccc1C(=O)Nc1cc([C@H]2CC[C@@H](OC(=O)NC3COC4(CCC4)C3)C2)[nH]n1 (single isomer, unassigned) [Compound 43] .
7.92

Would you kindly share the measured pIC50 for COCC1CC(C(=O)Nc2cc([C@H]3CC[C@@H](OC(=O)NC(C)C)C3)[nH]n2)C1 (single isomer, unassigned) [Compound 148] ?
8.26

Any idea what pIC50 was measured for CC(C)NC(=O)O[C@@H]1CO[C@H](c2cc(NC(=O)Cc3cc(F)cc(C#N)c3)n[nH]2)C1 [Compound 116] ?
8.35

Name the recorded pIC50 for CCC(C)(C)NC(=O)O[C@@H]1CO[C@H](c2cc(NC(=O)c3ccnn3C)n[nH]2)C1 [Compound 191] .
8.92

Entry under review: COC(C)[C@H]1C[C@@H]1C(=O)Nc1cc([C@H]2CC[C@@H](OC(=O)NC3(C)CC3)C2)[nH]n1 (single isomer, unassigned) [Compound 221] . Reported pIC50?
9.10

If you can, please state the reported pIC50 value of CC(C)NC(=O)O[C@@H]1CC[C@H](c2cc(NC(=O)C34CC(C(=O)NO)(C3)C4)n[nH]2)C1 [Compound 126] .
8.60
